- System: 883617-216-R-J1-PDC tumor spheroids, viability
- test_details: Anticancer human tumor 883617-216-R-J1-PDC patient-derived bladder carcinoma cell line growth inhibition [PI3K]
- details: second compound 1 µM; first compound 0.0316 µM; stronger effect = lower value; spheroids with HUVEC and MSC
Please note: viability, T/C exactly at 30% is 0.0. Only values below 30% get 1.0.

Completed entries (count: 2):
* C[C@@H](NC(=O)c1ncnc(N)c1Cl)c1ncc(C(=O)Nc2cc(C(F)(F)F)c(Cl)cn2)s1 + CC(Nc1ncnc2nc[nH]c12)c1cc2cccc(Cl)c2c(=O)n1-c1ccccc1 | 0.0
* CC(=O)c1c(C)c2cnc(Nc3ccc(N4CCNCC4)cn3)nc2n(C2CCCC2)c1=O + COc1c(OCCCN2CCOCC2)ccc2c3n(c(=NC(=O)c4cnc(N)nc4)nc12)CCN3 | 1.0

Inquiry: I wonder whether CC(Cn1ccc(-c2ccc(C#N)c(Cl)c2)n1)NC(=O)c1cc(C(C)O)[nH]n1 (stereo unspecified) + COc1c(OCCCN2CCOCC2)ccc2c3n(c(=NC(=O)c4cnc(N)nc4)nc12)CCN3 has viability, T/C below 30%. Can you tell?
Reply text: 1.0

Inquiry: Lab note: confirm whether the reported viability, T/C for this compound is below 30%, equality not counting. compound: CC1(C)CCC(CN2CCN(c3ccc(C(=O)NS(=O)(=O)c4ccc(NCC5CCOCC5)c([N+](=O)[O-])c4)c(Oc4cnc5[nH]ccc5c4)c3)CC2)=C(c2ccc(Cl)cc2)C1 + CC(Nc1ccc2c(c1)OCCn1cc(N3C(=O)OCC3C(F)F)nc1-2)C(N)=O
Reply text: 1.0

###

- Test system: 883617-216-R-J1-PDC tumor spheroids, viability
- test_details: Anticancer human tumor 883617-216-R-J1-PDC cell line growth inhibition [PI3K];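 note: spheroids exposed to agents for 7 days before the viability read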
- details: second compound 1 µM; first compound 1 µM; stronger effect = lower value; spheroids with HUVEC and MSC
Would you kindly list viability, T/C for each of these compounds?

Some entries whose results are on file:
* CC(C)NCC(C(=O)N1CCN(c2ncnc3c2C(C)CC3O)CC1)c1ccc(Cl)cc1 (stereo not drawn) + COc1c(OCCCN2CCOCC2)ccc2c3n(c(=NC(=O)c4cnc(N)nc4)nc12)CCN3 | 2.86%
* Cn1ncc(Cl)c1-c1cc(C(=O)NC(CN)Cc2cccc(F)c2)sc1Cl (stereo not drawn) + Cc1nc(NC(=O)N2CCCC2C(N)=O)sc1-c1ccnc(C(C)(C)C(F)(F)F)c1 | 13.9%

Shifting focus to the compound that follows.
Kindly note: 883617-216-R-J1-PDC tumor spheroids, viability, CCN1CCN(Cc2ccc(Nc3ncc(F)c(-c4cc(F)c5nc(C)n(C(C)C)c5c4)n3)nc2)CC1 + CC(Nc1ncnc2nc[nH]c12)c1cc2cccc(Cl)c2c(=O)n1-c1ccccc1 , viability, T/C value reported: 40.2%

###

- Tested on: 883617-216-R-J1-PDC tumor spheroids, viability
- test_details: Anticancer human tumor 883617-216-R-J1-PDC cell line growth inhibition [PI3K];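 note: spheroids exposed to agents for 7 days before the viability read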
- details: second compound 0.01 µM; first compound 10 µM; stronger effect = lower value; spheroids with HUVEC and MSC
readout_type: viability, T/C

Here are 4 compounds together with their reported answers.
• CC(C)NCC(C(=O)N1CCN(c2ncnc3c2C(C)CC3O)CC1)c1ccc(Cl)cc1 (configuration not stated) + COc1c(OCCCN2CCOCC2)ccc2c3n(c(=NC(=O)c4cnc(N)nc4)nc12)CCN3 = 6.61%
• Cn1ncc(Cl)c1-c1cc(C(=O)NC(CN)Cc2cccc(F)c2)sc1Cl (configuration not stated) + COc1c(OCCCN2CCOCC2)ccc2c3n(c(=NC(=O)c4cnc(N)nc4)nc12)CCN3 = 4.83%
• C[C@@H](NC(=O)c1ncnc(N)c1Cl)c1ncc(C(=O)Nc2cc(C(F)(F)F)c(Cl)cn2)s1 + CC(Nc1ccc2c(c1)OCCn1cc(N3C(=O)OCC3C(F)F)nc1-2)C(N)=O = 63.6%
• CC1(C)CCC(Nc2ncc(C(F)(F)F)c(-c3c[nH]c4c(P(C)(C)=O)c(C#N)ccc34)n2)CN1 (configuration not stated) + COc1c(OCCCN2CCOCC2)ccc2c3n(c(=NC(=O)c4cnc(N)nc4)nc12)CCN3 = 1.02%

For each of the compounds below, note its viability, T/C.
1. Cn1nccc1Nc1nccc(-c2ccn(C(CO)c3ccc(Cl)c(F)c3)c(=O)c2)n1 (configuration not stated) + CC(Nc1ccc2c(c1)OCCn1cc(N3C(=O)OCC3C(F)F)nc1-2)C(N)=O
2. CC1(C)CCC(CN2CCN(c3ccc(C(=O)NS(=O)(=O)c4ccc(NCC5CCOCC5)c([N+](=O)[O-])c4)c(Oc4cnc5[nH]ccc5c4)c3)CC2)=C(c2ccc(Cl)cc2)C1 + CC(Nc1ccc2c(c1)OCCn1cc(N3C(=O)OCC3C(F)F)nc1-2)C(N)=O
3. CNC(=O)c1ccc(N2C(=S)N(c3ccc(C#N)c(C(F)(F)F)c3)C(=O)C2(C)C)cc1F + COc1c(OCCCN2CCOCC2)ccc2c3n(c(=NC(=O)c4cnc(N)nc4)nc12)CCN3
4. CCCS(=O)(=O)Nc1ccc(F)c(C(=O)c2c[nH]c3ncc(-c4ccc(Cl)cc4)cc23)c1F + CC(Nc1ccc2c(c1)OCCn1cc(N3C(=O)OCC3C(F)F)nc1-2)C(N)=O
5. CCCS(=O)(=O)Nc1ccc(F)c(C(=O)c2c[nH]c3ncc(-c4ccc(Cl)cc4)cc23)c1F + COc1c(OCCCN2CCOCC2)ccc2c3n(c(=NC(=O)c4cnc(N)nc4)nc12)CCN3
6. C=CC(=O)N1CCN(c2nc(=O)n(-c3c(C)ccnc3C(C)C)c3nc(-c4c(O)cccc4F)c(F)cc23)C(C)C1 (configuration not stated) + CC(Nc1ccc2c(c1)OCCn1cc(N3C(=O)OCC3C(F)F)nc1-2)C(N)=O

Reply text:
1: 50.1%; 2: 3.91%; 3: 65.6%; 4: 11.9%; 5: 13.1%; 6: 61.1%

# batch size: 5; output viability, T/C per entry
1. CC(C)NCC(C(=O)N1CCN(c2ncnc3c2C(C)CC3O)CC1)c1ccc(Cl)cc1 (configuration not stated) + CC(Nc1ccc2c(c1)OCCn1cc(N3C(=O)OCC3C(F)F)nc1-2)C(N)=O
2. CC(Cn1ccc(-c2ccc(C#N)c(Cl)c2)n1)NC(=O)c1cc(C(C)O)[nH]n1 (configuration not stated) + COc1c(OCCCN2CCOCC2)ccc2c3n(c(=NC(=O)c4cnc(N)nc4)nc12)CCN3
3. CNC(=O)c1ccc(N2C(=S)N(c3ccc(C#N)c(C(F)(F)F)c3)C(=O)C2(C)C)cc1F + CC(Nc1ccc2c(c1)OCCn1cc(N3C(=O)OCC3C(F)F)nc1-2)C(N)=O
4. C#Cc1c(F)ccc2cc(O)cc(-c3ncc4c(N5CC6CCC(C5)N6)nc(OCC56CCCN5CC(F)C6)nc4c3F)c12 (configuration not stated) + CC(Nc1ccc2c(c1)OCCn1cc(N3C(=O)OCC3C(F)F)nc1-2)C(N)=O
5. Cn1ncc(Cl)c1-c1cc(C(=O)NC(CN)Cc2cccc(F)c2)sc1Cl (configuration not stated) + CC(Nc1ccc2c(c1)OCCn1cc(N3C(=O)OCC3C(F)F)nc1-2)C(N)=O

Reply text:
1. 5.88%
2. 64.2%
3. 63.4%
4. 53.2%
5. 96.1%

Parameter requested: viability, T/C. Apply to each item below.
1. CC(Cn1ccc(-c2ccc(C#N)c(Cl)c2)n1)NC(=O)c1cc(C(C)O)[nH]n1 (configuration not stated) + CC(Nc1ccc2c(c1)OCCn1cc(N3C(=O)OCC3C(F)F)nc1-2)C(N)=O
2. CC1(C)CCC(CN2CCN(c3ccc(C(=O)NS(=O)(=O)c4ccc(NCC5CCOCC5)c([N+](=O)[O-])c4)c(Oc4cnc5[nH]ccc5c4)c3)CC2)=C(c2ccc(Cl)cc2)C1 + COc1c(OCCCN2CCOCC2)ccc2c3n(c(=NC(=O)c4cnc(N)nc4)nc12)CCN3

Reply text:
["86.5%", "58.2%"]
